Biological target: HIV Env of isolate T250-4 a.k.a. CRF250 (clade AG) (HIV)
Experiment: cell-based or functional assay
VALUE KIND: IC80 (µg/ml) with constrains (µg/mL)
Note: unit µg/mL is implicit; provide only the numeric part.

Query: I'd like to know its IC80 (µg/ml) with constrains. The binder in question is ePGDM9 (antibody, V domains shown) VH: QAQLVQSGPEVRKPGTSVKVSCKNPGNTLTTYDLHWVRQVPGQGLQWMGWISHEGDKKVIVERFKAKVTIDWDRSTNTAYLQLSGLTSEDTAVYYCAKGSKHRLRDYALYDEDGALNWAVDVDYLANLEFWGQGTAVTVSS VL: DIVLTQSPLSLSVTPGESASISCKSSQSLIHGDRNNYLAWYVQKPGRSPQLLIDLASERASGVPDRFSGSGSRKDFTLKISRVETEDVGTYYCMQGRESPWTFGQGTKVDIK
Response: 0.163

Data provenance: patent US20230134571A1
